Ref: PubChem BioAssay (NCI)

Test system: BT-549 breast
experiment notes: NCI-60 one-dose screen, 48 h
cond: 10 µM unless noted
The panel holds about 83,000 compounds, 20% with a hit somewhere; the sample as a whole holds those more often. The source made the active and inactive calls. The calls were made as follows: active = growth percent below 10; inactive = the rest.
Hi! Could you answer with just one of these? true (active), false (inactive)

{"columns": ["molecule", "class assignment"],
 "data": [
  ["Cc1ccc(S(=O)(=O)F)cc1C(=O)O", "false"],
  ["COc1ccc2c(c1)c(-c1nc(-c3c[nH]c4ncccc34)cs1)cn2CCN1CCOCC1", "false"],
  ["CCOC(=O)[C@@H](C)C[C@H](Cc1ccccc1)NC(=O)c1csc([C@@H](C[C@H](C(C)C)N(C)C(=O)[C@@H](NC(=O)[C@H]2CCCCN2C)C(C)(C)C)OC(C)=O)n1", "true"]
]}

(Q) Call for entry COc1ccc2c(c1)c(-c1nc(-c3cn(C)c4ncccc34)cs1)cn2CCN1CCOCC1 :
(A) false

(Q) Call for entry COc1cc(/C=C\c2cc(OC)c(OC)c(OC)c2)cc(NS(=O)(=O)c2cccc(Cl)c2)c1OC :
(A) false

###

For each record, write down the corresponding growth.
Tested on: HCC-2998 colon
experiment notes: NCI-60 one-dose screen, 48 h (100 = growth as untreated, 0 = no growth, -100 = all killed)
cond: 10 µM unless noted
This is part of a sample that, as a whole, favours compounds with a hit. Of some 83,000 tested, about 20% had one in any assay.
Numbers only, in %.

{"columns": ["compound", "readout type", "data value"],
 "data": [
  ["CCOC(=O)[C@@H](C)C[C@H](Cc1ccccc1)NC(=O)c1nc([C@@H](C[C@H](C(C)C)N(C)C(=O)[C@@H](NC(=O)[C@H]2CCCCN2C)C(C)C)OC(C)=O)sc1CCOCc1ccccc1", "growth", -59.6],
  ["CCCCCCCC(=O)OCC(=O)[C@]1(O)Cc2c(O)c3c(c(O)c2[C@@H](OC2CC(N)C(O)C(C)O2)C1)C(=O)c1c(OC)cccc1C3=O (stereo partly specified)", "growth", -90.1],
  ["O=C1CNC(c2ccccc2)c2cc(Cl)ccc2N1 (stereo unspecified)", "growth", 106],
  ["COc1ccc(N(CC(=O)NCCC[Te]c2ccccc2)C(=O)CNC(=O)OC(C)(C)C)cc1", "growth", 43.3],
  ["CC[C@@H]1[C@@H](C)O[C@@](O)([C@@H](C)[C@H](O)[C@H](C)[C@H]2OC(=O)/C=C/C=C/[C@H](C)[C@@H]([C@@H](C)[C@@H](O)[C@H](C)[C@@]3(O)C[C@@H](O[C@H]4C[C@@H](O)[C@H](O)C(C)O4)[C@H](CC)[C@@H](C)O3)OC(=O)/C=C/C=C/[C@@H]2C)C[C@H]1O[C@@H]1C[C@@H](O)[C@H](O)C(C)O1 (stereo partly specified)", "growth", -74.7]
]}

--- query ---
(Q) Recall the reported growth of CC1(C)N=C(N)N=C(N)N1c1ccc(OCCCNC(=O)Nc2ccc(S(=O)(=O)F)cc2)c(Cl)c1 when tested on HCC-2998 colon.
(A) 15.3

###

Test system: IGROV1 ovarian
experiment notes: NCI-60 one-dose screen, 48 h (100 = growth as untreated, 0 = no growth, -100 = all killed)
cond: 10 µM unless noted
Compounds without any hit were thinned out: in the full panel of roughly 83,000, 20% have a hit.
readout type: growth (%)
Give bare numbers, in %.

{"columns": ["compound", "growth (%)"],
 "data": [
  ["COC[C@@H]1C[C@@]2(C)[C@@H](CC[C@@H]3[C@@H]2CC[C@@]2(C)[C@H]3CC[C@]2(C)O)CC1=O", 98.9]
]}

# batch size: 4; output growth per entry
1. COc1ccc2c(c1)c(-c1nc(-c3c[nH]c4ncccc34)cs1)cn2CCCCN1CCCCC1
2. CCCC(C)C1(CC)C(=O)NC(=O)N(C)C1=O (stereo not given)
3. NC(=O)CNc1ccc([As]=[As]c2ccc(NCC(N)=O)cc2)cc1 (stereo not given)
4. COc1ccc(O)c(CNC(=O)CN2CCCC2=O)c1

(A)
1: -62.1; 2: 96.6; 3: 8.16; 4: 104

###

System: HCT-15 colon
experiment notes: NCI-60 one-dose screen, 48 h (100 = growth as untreated, 0 = no growth, -100 = all killed)
cond: 10 µM unless noted
The panel holds about 83,000 compounds, 20% with a hit somewhere; the sample as a whole holds those more often. Activity calls are given as the source filed them. Rule for the calls: active = growth percent below 10; inactive = the rest.
readout type: growth

Check out these entries, answers already filled in.
{"columns": ["compound", "data value"],
 "data": [
  ["CCOC(=O)C(Cc1ccc(N(CCCl)CCCl)cc1)NC(=O)C(CC(C)C)NC(C)=O (stereo not given)", "35% (inactive)"],
  ["CC[C@H](C)[C@H](NC(=O)c1cccn1C)C(=O)N(C)[C@H](C[C@@H](OC(C)=O)c1nc(C(=O)N[C@@H](Cc2ccccc2)C[C@H](C)C(=O)OC)cs1)C(C)C", "12% (inactive)"],
  ["COc1cc(C=Nc2cccc(C(=O)O)c2)ccc1N(CCCl)CCCl", "97.8% (inactive)"],
  ["COc1ccc2c(c1)c(C1(O)CC(CSC#N)OC1=O)cn2C(=O)c1ccc(Cl)cc1 (stereo not given)", "98.7% (inactive)"],
  ["C[C@@H]1CCC2[C@@H](C)[C@H](OC(=O)CCC(=O)NCCNC(=O)Cc3cc(=O)oc4cc(N(C)C)ccc34)O[C@@H]3O[C@]4(C)CC[C@@H]1C23OO4 (stereo not given in full)", "7.81% (active)"],
  ["C/C(=C\\c1cc(C(F)(F)F)nn1CCNC(=O)OC(C)(C)C)[C@@H]1C[C@@H]2O[C@]2(C)CCC[C@H](C)[C@H](O)[C@@H](C)C(=O)C(C)(C)[C@@H](O)CC(=O)O1", "39.5% (inactive)"],
  ["COc1ccc2c(c1)c(-c1nc(-c3cn(C)c4ncccc34)cs1)cn2CCCCN1CCCCC1", "-80.9% (active)"],
  ["Cc1ccc(C(=O)NCCCOc2ccc(N3C(N)=NC(N)=NC3(C)C)cc2Cl)cc1S(=O)(=O)F", "102% (inactive)"]
]}

The following compounds each have a reported value; give each one's growth.
1. O=C1CN=C(c2ccc(Cl)cc2)c2sccc2N1
2. COc1cc([C@@H]2c3cc4c(cc3[C@H](OC(C)=O)[C@H]3COC(=O)[C@@H]23)OCO4)cc(OC)c1OC
3. CC(C)(NC(=O)O[C@@H]1CN2CCC1CC2)c1csc(-c2ccc(F)cc2)n1
4. CC(=O)O[C@H]1C(=O)[C@@]2(C)[C@H]([C@H](OC(=O)c3ccccc3)[C@]3(O)C[C@H](OC(=O)[C@H](OC(=O)OC[C@H]4COC(C)(C)O4)[C@@H](NC(=O)c4ccccc4)c4ccccc4)C(C)=C1C3(C)C)[C@]1(OC(C)=O)CO[C@@H]1C[C@@H]2O
5. CC12CC=CCC1CCC1C2CCC2(C)C(c3ccc(=O)oc3)CCC12O (stereo not given)
6. CCCCN1CCCC[C@@H]1C(=O)N[C@H](C(=O)N(C)[C@H](C[C@@H](OC(C)=O)c1nc(C(=O)NC2CCC(C(=O)OC)CC2)cs1)C(C)C)C(C)C (stereo not given in full)
7. COC[C@@H]1C[C@@]2(C)[C@@H](CC[C@@H]3[C@@H]2CC[C@@]2(C)[C@H]3CC[C@]2(C)O)CC1=O

(A)
1. 98.6% (inactive)
2. 11.8% (inactive)
3. 102% (inactive)
4. 5.28% (active)
5. -66.3% (active)
6. 30.9% (inactive)
7. 94.8% (inactive)

###

System: SF-268 CNS
experiment notes: NCI-60 one-dose screen, 48 h (100 = growth as untreated, 0 = no growth, -100 = all killed)
cond: 10 µM unless noted
This is part of a sample that, as a whole, favours compounds with a hit. Of some 83,000 tested, about 20% had one in any assay.
If the reported growth equals or exceeds 20%, assign rule met. If not, assign rule not met.

{"columns": ["compound", "class assignment"],
 "data": [
  ["COc1cc2c(cc1OCCCn1c(-c3ccccn3)nc3ccccc31)N=C[C@@H]1CCCN1C2=O", "rule not met"],
  ["CC[C@H](C)[C@H](NC(=O)c1cccn1C)C(=O)N(C)[C@H](C[C@@H](OC(C)=O)c1nc(C(=O)N[C@@H](Cc2ccccc2)C[C@H](C)C(=O)OC)cs1)C(C)C", "rule not met"],
  ["CC1CCCC(C[N+](C)(C)C)C1=O (stereo not given)", "rule met"]
]}

(Q) Textbook exercise: given the entry C[C@@]1(CCCCCCCCCc2ccc(O)cc2)C[C@]2(C)OC(=O)C[C@@H]2OO1 , state whether its growth is greater than or equal to 20%.
(A) rule met

(Q) Test whether the compound COc1cccc(/C=C/[N+](=O)[O-])c1 records growth of 20% or higher.
(A) rule met
